target: DCN2 (DCUND2) protein PONY domain (Homo sapiens (Human))
Sequence (Q6PH85 60-248): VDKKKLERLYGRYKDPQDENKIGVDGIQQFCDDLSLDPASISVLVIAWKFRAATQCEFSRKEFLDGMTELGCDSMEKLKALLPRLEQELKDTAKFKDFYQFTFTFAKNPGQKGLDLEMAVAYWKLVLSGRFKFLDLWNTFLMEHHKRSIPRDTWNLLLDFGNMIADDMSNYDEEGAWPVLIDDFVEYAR
pKi: −log10 of the molar value.
In this section, each of the compounds is paired with its reported pKi.

{"compound": "C=C(C(=O)NCc1cccc([C@@H]2c3cnn(-c4ccccc4)c3N(CC)C(=O)[C@H]2NC(=O)c2csc(C(F)(F)F)n2)c1)C(C)N(C)C1COC1 (some centres unmarked)", "pKi": "< 9.30"}
{"compound": "C/C=C(\\CN1CCN(C2COC2)CC1)C(=O)Nc1cccc([C@@H]2c3cnn(-c4ccccc4)c3N(CC)C(=O)[C@H]2NC(=O)c2csc(C(F)(F)F)n2)c1", "pKi": "< 9.30"}
{"compound": "C=C(CN1CCOCC1)C(=O)NC[C@@H](NC(=O)[C@H](Cc1nc2ccc(C(C)C)cc2s1)NC(=O)CC)C1CCCCC1 [Compound C1, reference compound]", "pKi": "9.30 to 9.70"}
{"compound": "C/C=C(\\CN1CCN(C2COC2)CC1)C(=O)Nc1cccc([C@@H]2c3cnn(-c4ccccc4)c3N(CC)C(=O)[C@H]2NC(=O)c2ccn(C(F)(F)F)n2)c1", "pKi": "< 9.30"}
{"compound": "C=C(CN1CCOCC1)C(=O)Nc1cccc([C@@H]2c3c(C)nn(-c4ccccc4)c3N(CC)C(=O)[C@H]2NC(=O)c2cccc(C(F)(F)F)c2)c1", "pKi": "< 9.30"}

====

biological target: DCN1 (DCUND1) protein PONY domain (Homo sapiens (Human)); assay: TR-FRET assay (binding to DCN-1, displacement of FAM-labeled probe); conditions: 24 hr after treatment with compound; read-out: TR FRET IC50 24 hr
pIC50: −log10 of the molar value.
assay.metric: pIC50

{"molecule": "CCN1C(=O)[C@@H](NC(=O)c2cccc(C(F)(F)F)c2)[C@@H](c2cncc(NC(=O)/C=C/CN(C)C)c2)c2cnn(-c3ccccc3)c21", "experimental.target": "DCN1 (DCUND1) protein PONY domain (Homo sapiens (Human))", "assay.metric": "pIC50", "reported": "5.52 to 6.00"}
{"molecule": "C=C(CN1CC2CC(C1)O2)C(=O)NCc1cccc([C@@H]2c3cnn(-c4ccccc4)c3N(CC)C(=O)[C@H]2NC(=O)c2nccc(C(F)(F)F)n2)c1", "experimental.target": "DCN1 (DCUND1) protein PONY domain (Homo sapiens (Human))", "assay.metric": "pIC50", "reported": "≥ 6.70"}
{"molecule": "C=C(CN1CC2CC(C1)O2)C(=O)N(C)Cc1cccc([C@@H]2c3cnn(-c4ccccc4)c3N(CC)C(=O)[C@H]2NC(=O)c2ccn(C(F)(F)F)n2)c1", "experimental.target": "DCN1 (DCUND1) protein PONY domain (Homo sapiens (Human))", "assay.metric": "pIC50", "reported": "≥ 6.70"}
{"molecule": "CCN1C(=O)[C@@H](NC(=O)c2nccc(C(F)(F)F)n2)[C@H](c2cccc(C(=O)N3CC(F)(F)C[C@H]3C#N)c2)c2cnn(-c3ccccc3)c21 (mixture of isomers)", "experimental.target": "DCN1 (DCUND1) protein PONY domain (Homo sapiens (Human))", "assay.metric": "pIC50", "reported": "5.52 to 6.00"}
{"molecule": "C/C=C(\\CN1CCN(C2COC2)CC1)C(=O)NCc1cccc([C@@H]2c3cnn(-c4ccccc4)c3N(CC)C(=O)[C@H]2NC(=O)c2nccc(C(F)(F)F)n2)c1", "experimental.target": "DCN1 (DCUND1) protein PONY domain (Homo sapiens (Human))", "assay.metric": "pIC50", "reported": "≥ 6.70"}

====

molecular target: DCN1 (DCUND1) protein PONY domain (Homo sapiens (Human)); test: TR-FRET assay (binding to DCN-1, displacement of FAM-labeled probe); conditions: TR FRET IC50 1 hr (nM), 1 hr after treatment with compound
assay.metric: IC50

{"compound": "CCN1C(=O)[C@@H](NC(=O)c2cccc(C(F)(F)F)c2)[C@H](c2cccc(CNC(=O)C(F)Cl)c2)c2cnn(-c3ccccc3)c21 (mixture of isomers)", "reported": "1000 to 3000 nM"}
{"compound": "C=C(CN1CCOCC1)C(=O)NCc1cccc([C@@H]2c3cnn(-c4ccccc4)c3N(CC)C(=O)[C@H]2NC(=O)c2ccnn2C(F)(F)F)c1", "reported": "1000 to 3000 nM"}
{"compound": "CCN1C(=O)[C@@H](NC(=O)c2cccc(C(F)(F)F)c2)[C@H](c2cccc(CNC/C=C/C(=O)OC(C)(C)C)c2)c2cnn(-c3ccccc3)c21", "reported": "1000 to 3000 nM"}

====

target: DCN1 (DCUND1) protein PONY domain (Homo sapiens (Human), UniProt Q96GG9); test: TR-FRET assay (binding to DCN-1, displacement of FAM-labeled probe); settings: TR FRET IC50 1 hr (nM), 1 hr after treatment with compound
Sequence (Q96GG9 60-248): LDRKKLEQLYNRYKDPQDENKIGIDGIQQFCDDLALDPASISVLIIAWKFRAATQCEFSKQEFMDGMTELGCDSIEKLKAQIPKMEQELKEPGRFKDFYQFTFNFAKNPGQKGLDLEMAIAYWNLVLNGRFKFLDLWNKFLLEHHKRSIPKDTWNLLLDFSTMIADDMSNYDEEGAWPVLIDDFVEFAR
assay.metric: IC50

{"compound": "C=C(CN1CCN(C2COC2)CC1)C(=O)NCc1cccc([C@@H]2c3c(C)nn(-c4ccccc4)c3N(CC)C(=O)[C@H]2NC(=O)c2cccc(C(F)(F)F)c2)c1 (stereo in doubt) [Compound I-252]", "reported": "1000 to 3000 nM"}
{"compound": "CCN1C(=O)[C@@H](NC(=O)c2cccc(C(F)(F)F)c2)[C@@H](c2cncc(NC(=O)/C=C/CN(C)C)c2)c2cnn(-c3ccccc3)c21 [Compound I-329]", "reported": "1000 to 3000 nM"}
{"compound": "C=C(CN1CCC12COC2)C(=O)N(C)Cc1cccc([C@@H]2c3cnn(-c4ccccc4)c3N(CC)C(=O)[C@H]2NC(=O)c2ccn(C3CC3)n2)c1 [Compound I-373]", "reported": "200 to 1000 nM"}
{"compound": "CCN1C(=O)[C@@H](NC(=O)c2cccc(C(F)(F)F)c2)[C@H](c2ccccc2CN(C)C#N)c2c(C)nn(-c3ccccc3)c21 (racemic) [Compound I-30]", "reported": "1000 to 3000 nM"}
{"compound": "C/C=C(\\CN1CC2(COC2)C1)C(=O)NCc1cccc([C@@H]2c3cnn(-c4ccccc4)c3N(CC)C(=O)[C@H]2NC(=O)c2nccc(C(F)(F)F)n2)c1 [Compound I-243]", "reported": "200 to 1000 nM"}

====

target: DCN1 (DCUND1) protein PONY domain (Homo sapiens (Human), UniProt Q96GG9); test: TR-FRET assay (binding to DCN-1, displacement of FAM-labeled probe); conditions: 24 hr after treatment with compound; read-out: TR FRET IC50 24 hr
The following molecules are shown together with reported IC50 values.

{"molecule": "C=C(Cn1cc(F)cn1)C(=O)NCc1cccc([C@@H]2c3cnn(-c4ccccc4)c3N(CC)C(=O)[C@H]2NC(=O)c2nccc(C(F)(F)F)n2)c1", "experimental.target": "DCN1 (DCUND1) protein PONY domain (Homo sapiens (Human), UniProt Q96GG9)", "IC50": "200 to 1000 nM"}
{"molecule": "C=C(CN1CCC(F)(F)C1)C(=O)Nc1cccc([C@@H]2c3c(C)nn(-c4ccccc4)c3N(CC)C(=O)[C@H]2NC(=O)c2cccc(C(F)(F)F)c2)c1 (racemic)", "experimental.target": "DCN1 (DCUND1) protein PONY domain (Homo sapiens (Human), UniProt Q96GG9)", "IC50": "≤ 200 nM"}
{"molecule": "CCN1C(=O)[C@@H](NC(=O)c2cccc(C(F)(F)F)c2)[C@H](c2ccccc2NC(=O)CCl)c2c(C)nn(-c3ccccc3)c21", "experimental.target": "DCN1 (DCUND1) protein PONY domain (Homo sapiens (Human), UniProt Q96GG9)", "IC50": "≤ 200 nM"}

====

Measured Emax accompanies every entry in the list below.
target: DCN1 protein (Homo sapiens (Human), UniProt Q96GG9); test: Intact protein MS analysis with the RapidFire-TOF system (covalent adduct formation); assay type: binding; conditions: 400 nM DCN1, incubated at room temperature for 3 hours
Sequence (Q96GG9 whole entry): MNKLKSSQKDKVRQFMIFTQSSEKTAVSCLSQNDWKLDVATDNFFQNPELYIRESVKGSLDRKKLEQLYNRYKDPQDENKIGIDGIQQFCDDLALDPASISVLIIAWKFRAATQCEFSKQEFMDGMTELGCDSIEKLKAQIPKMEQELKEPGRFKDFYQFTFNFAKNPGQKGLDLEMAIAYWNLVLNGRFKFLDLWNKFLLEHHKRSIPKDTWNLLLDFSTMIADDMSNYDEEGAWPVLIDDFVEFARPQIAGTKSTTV

{"compound": "C=C(CN1CCOCC1)C(=O)Nc1ccccc1[C@H]1c2cnn(-c3ccccc3)c2N(CC)C(=O)[C@@H]1NC(=O)c1cccc(C(F)(F)F)c1 (racemic) [Compound I-15]", "experimental.target": "DCN1 protein (Homo sapiens (Human), UniProt Q96GG9)", "Emax": "80 to 100%"}
{"compound": "CCN1C(=O)[C@H](NC(=O)c2cccc(C(F)(F)F)c2)[C@@H](c2ccccc2NC(=O)[C@@H](C)Cl)c2cnn(-c3ccccc3)c21 (mixture of isomers) [Compound I-185]", "experimental.target": "DCN1 protein (Homo sapiens (Human), UniProt Q96GG9)", "Emax": "0 to 30%"}
{"compound": "CCN1C(=O)[C@H](NC(=O)c2cccc(C(F)(F)F)c2)[C@@H](c2ccccc2NS(=O)(=O)CCl)c2cnn(-c3ccccc3)c21 (racemic) [Compound I-175]", "experimental.target": "DCN1 protein (Homo sapiens (Human), UniProt Q96GG9)", "Emax": "0 to 30%"}
{"compound": "C=CS(=O)(=O)Nc1cccc([C@H]2c3c(C)nn(-c4ccccc4)c3N(CC)C(=O)[C@H]2NC(=O)c2cccc(C(F)(F)F)c2)c1 (racemic) [Compound I-186]", "experimental.target": "DCN1 protein (Homo sapiens (Human), UniProt Q96GG9)", "Emax": "30 to 80%"}
{"compound": "CCN1C(=O)[C@H](NC(=O)c2cccc(C(F)(F)F)c2)[C@@H](c2cccc(NC(=O)/C(C#N)=C/C3CC3)c2)c2c(C)nn(-c3ccccc3)c21 (racemic) [Compound I-68]", "experimental.target": "DCN1 protein (Homo sapiens (Human), UniProt Q96GG9)", "Emax": "80 to 100%"}
{"compound": "CCN1C(=O)[C@H](NC(=O)c2cccc(C(F)(F)F)c2)[C@@H](c2ccccc2NC(=O)/C(C#N)=C/C2CC2)c2cnn(-c3ccccc3)c21 (racemic) [Compound I-179]", "experimental.target": "DCN1 protein (Homo sapiens (Human), UniProt Q96GG9)", "Emax": "80 to 100%"}
{"compound": "CCN1C(=O)[C@H](NC(=O)c2cccc(C(F)(F)F)c2)[C@@H](c2cccc(NC(=O)/C=C/CN(C)C)c2)c2c(C)nn(-c3ccccc3)c21 (racemic) [Compound I-38]", "experimental.target": "DCN1 protein (Homo sapiens (Human), UniProt Q96GG9)", "Emax": "80 to 100%"}
{"compound": "CCN1C(=O)[C@@H](NC(=O)c2cccc(C(F)(F)F)c2)[C@H](c2cccc(NC(=O)/C=C/CN(C)C)n2)c2cnn(-c3ccccc3)c21 [Compound I-214]", "experimental.target": "DCN1 protein (Homo sapiens (Human), UniProt Q96GG9)", "Emax": "80 to 100%"}
{"compound": "CCN1C(=O)[C@H](NC(=O)c2cccc(C(F)(F)F)c2)[C@@H](c2cccc(NC(=O)/C=C/C(=O)OC)c2)c2c(C)nn(-c3ccccc3)c21 (racemic) [Compound I-141]", "experimental.target": "DCN1 protein (Homo sapiens (Human), UniProt Q96GG9)", "Emax": "80 to 100%"}
{"compound": "CC#CC(=O)Nc1cccc([C@H]2c3c(C)nn(-c4ccccc4)c3N(CC)C(=O)[C@@H]2NC(=O)c2cccc(C(F)(F)F)c2)c1 (racemic) [Compound I-193]", "experimental.target": "DCN1 protein (Homo sapiens (Human), UniProt Q96GG9)", "Emax": "30 to 80%"}
{"compound": "CCN1C(=O)[C@H](NC(=O)c2cccc(C(F)(F)F)c2)[C@@H](c2cccc(NC(=O)C#CCN(C)C)c2)c2c(C)nn(-c3ccccc3)c21 (racemic) [Compound I-133]", "experimental.target": "DCN1 protein (Homo sapiens (Human), UniProt Q96GG9)", "Emax": "80 to 100%"}
{"compound": "C=C(CN1CCOCC1)C(=O)Nc1cccc([C@H]2c3c(C)nn(-c4ccccc4)c3N(CC)C(=O)[C@@H]2NC(=O)c2cccc(C(F)(F)F)c2)c1 (racemic) [Compound I-9]", "experimental.target": "DCN1 protein (Homo sapiens (Human), UniProt Q96GG9)", "Emax": "80 to 100%"}
{"compound": "CCN1C(=O)[C@@H](NC(=O)c2cccc(C(F)(F)F)c2)[C@@H](c2cccc(NC(=O)[C@H](F)Cl)c2)c2c(C)nn(-c3ccccc3)c21 (mixture of isomers) [Compound I-18]", "experimental.target": "DCN1 protein (Homo sapiens (Human), UniProt Q96GG9)", "Emax": "0 to 30%"}
{"compound": "C#CC(=O)Nc1cccc([C@H]2c3c(C)nn(-c4ccccc4)c3N(CC)C(=O)[C@H]2NC(=O)c2cccc(C(F)(F)F)c2)c1 (racemic) [Compound I-173]", "experimental.target": "DCN1 protein (Homo sapiens (Human), UniProt Q96GG9)", "Emax": "30 to 80%"}
{"compound": "CC#CC(=O)Nc1ccccc1[C@H]1c2cnn(-c3ccccc3)c2N(CC)C(=O)[C@@H]1NC(=O)c1cccc(C(F)(F)F)c1 (racemic) [Compound I-159]", "experimental.target": "DCN1 protein (Homo sapiens (Human), UniProt Q96GG9)", "Emax": "0 to 30%"}
{"compound": "C/C=C(\\CN1CCOCC1)C(=O)Nc1cccc([C@@H]2c3c(C)nn(-c4ccccc4)c3N(CC)C(=O)[C@H]2NC(=O)c2cccc(C(F)(F)F)c2)c1 (racemic) [Compound I-142]", "experimental.target": "DCN1 protein (Homo sapiens (Human), UniProt Q96GG9)", "Emax": "80 to 100%"}
{"compound": "C=C(F)C(=O)Nc1ccccc1[C@H]1c2cnn(-c3ccccc3)c2N(CC)C(=O)[C@@H]1NC(=O)c1cccc(C(F)(F)F)c1 (racemic) [Compound I-199]", "experimental.target": "DCN1 protein (Homo sapiens (Human), UniProt Q96GG9)", "Emax": "0 to 30%"}
{"compound": "CCN1C(=O)[C@H](NC(=O)c2cccc(C(F)(F)F)c2)[C@@H](c2cccc(NC(=O)/C(C#N)=C/C(C)C)c2)c2c(C)nn(-c3ccccc3)c21 (racemic) [Compound I-46]", "experimental.target": "DCN1 protein (Homo sapiens (Human), UniProt Q96GG9)", "Emax": "80 to 100%"}
{"compound": "CCN1C(=O)[C@H](NC(=O)c2cccc(C(F)(F)F)c2)[C@@H](c2ccccc2NC(=O)/C=C/CN(C)C)c2cnn(-c3ccccc3)c21 (racemic) [Compound I-196]", "experimental.target": "DCN1 protein (Homo sapiens (Human), UniProt Q96GG9)", "Emax": "0 to 30%"}
{"compound": "C=C(CN1CC2(COC2)C1)C(=O)NCc1cccc([C@@H]2c3cnn(-c4ccccc4)c3N(CC)C(=O)[C@H]2NC(=O)c2cccc(C(F)(F)F)c2)c1 [Compound I-6]", "experimental.target": "DCN1 protein (Homo sapiens (Human), UniProt Q96GG9)", "Emax": "80 to 100%"}
{"compound": "C=C(CN1CCOCC1)C(=O)NCc1cccc([C@@H]2c3cnn(-c4ccccc4)c3N(CC)C(=O)[C@H]2NC(=O)c2ccnn2C(F)(F)F)c1 [Compound I-86]", "experimental.target": "DCN1 protein (Homo sapiens (Human), UniProt Q96GG9)", "Emax": "0 to 30%"}
